# assay_method_text: self-splicing fitness, log relative to wild type (ln ratio); higher = more splicing; Tetrahymena group I intron in knt gene, E. coli kanamycin selection, DiMSum; sequences stand for … in CUCUCU…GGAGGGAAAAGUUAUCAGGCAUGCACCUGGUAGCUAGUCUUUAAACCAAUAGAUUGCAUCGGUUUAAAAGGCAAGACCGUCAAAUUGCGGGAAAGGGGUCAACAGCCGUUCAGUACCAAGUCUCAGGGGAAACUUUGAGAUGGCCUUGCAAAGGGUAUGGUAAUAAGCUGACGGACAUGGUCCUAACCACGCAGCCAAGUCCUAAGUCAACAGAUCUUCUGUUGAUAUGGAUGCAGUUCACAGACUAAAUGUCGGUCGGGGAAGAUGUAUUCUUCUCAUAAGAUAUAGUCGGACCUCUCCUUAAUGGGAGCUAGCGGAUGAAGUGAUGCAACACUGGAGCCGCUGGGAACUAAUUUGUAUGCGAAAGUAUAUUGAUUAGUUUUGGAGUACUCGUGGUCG;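 also: selection with 25 µg/mL kanamycin versus none on LB agar overnight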
# assay_context: 30 °C
assay_readout: self-splicing fitness (ln)
Form rule: numeric answer, no unit written next to it.

>>> result_value("GUUUAGCAAUAUUACGCCAU")
-1.68

For record `CGCUAGCAAUAUUACGUGAG` the listed self-splicing fitness (ln) is -3.88

For record `CAGUAGCAAUAUUACGAUAA` the listed self-splicing fitness (ln) is -3.55

For record `AACUAGCAAUAUUACGAACC` the listed self-splicing fitness (ln) is -0.5

For record `ACUUAGCAAUAUUACGCCGG` the listed self-splicing fitness (ln) is -1.08
